Please go through the items and note down their growth.
- System: SNB-19 CNS
- PROTOCOL TEXT: NCI-60 one-dose screen, 48 h (100 = growth as untreated, 0 = no growth, -100 = all killed)
- TEST PARAMETERS: 10 µM unless noted
The panel holds about 83,000 compounds, 20% with a hit somewhere; the sample as a whole holds those more often. Active and inactive are the calls of the source. The calls were made as follows: active = growth percent below 10; inactive = the rest.

Find the measured growth: item NC(=O)c1cc(Cl)ccc1NC(=O)/C=C/c1ccccc1 , target or system SNB-19 CNS.
26.7% (inactive)

Hello, I am looking for reported growth with SNB-19 CNS for CCCCCCCCCCCCC[N+](C)(C)Cc1ccccc1 . Could you help?
-60.7% (active)

Notebook: pull reported growth for SNB-19 CNS, entry COc1ccc(-c2cc(-c3ccc(Nc4ccnc5cc(Cl)ccc45)cc3)nc(N3CCOCC3)n2)cc1
28.2% (inactive)

Notebook: pull reported growth for SNB-19 CNS, entry COc1ccc(Nc2c3c4c(cccc4[nH]c2=O)C(=O)c2ccccc2-3)cc1
25.8% (inactive)

Item Cc1cc(N2CCCC2)nc(NC2CCCC(Nc3ccnc4cc(Cl)ccc34)C2)n1 (stereo unspecified) with SNB-19 CNS - growth?
-20.3% (active)

Value wanted: growth (SNB-19 CNS) of entry COc1cc2c(cc1O)CC[C@@H]1[C@@H]2CC[C@]2(C)[C@@H](OCCN(C)C)CC[C@@H]12
52.4% (inactive)

SNB-19 CNS / growth / COCCNc1ccc2c3c(cccc13)C(=O)N(CCN(C)C)C2=O : value?
22.4% (inactive)

Record Clc1ccc2c(NCCCNc3nc(-n4ccnc4)nc4ccccc34)ccnc2c1 : what is its growth with SNB-19 CNS?
92.1% (inactive)

Give recorded growth with SNB-19 CNS for the following molecule: CC(=O)OC[C@H]1O[C@H](OC(C)=O)[C@H](NC(=O)/C=C/CCl)[C@@H](OC(C)=O)[C@@H]1OC(C)=O
86.8% (inactive)

Find growth (SNB-19 CNS) for the entry O=C1c2cc3c(cc2-c2c1c1cc(F)c(F)cc1c(=O)n2CCCn1ccnc1)OCO3
15.7% (inactive)

Value wanted: growth (SNB-19 CNS) of entry O=[N+]([O-])c1ccc2c(c1)Cc1cc(F)ccc1-2
92.5% (inactive)

Lookup: growth / SNB-19 CNS / Oc1ccc(N=Cc2ccccc2O)cc1
93.1% (inactive)

Identify the measured growth of CCc1c(Nc2ccccc2C)nc(N)[nH]c1=O for SNB-19 CNS.
110% (inactive)

Provide value of growth for this record tested with SNB-19 CNS: COc1ccc(-c2nc3cc(C(=O)Nc4cc(OC)c(OC)c(OC)c4)ccc3n2C2CCCCC2)cc1
98.1% (inactive)

Provide value of growth for this record tested with SNB-19 CNS: CSc1nc(NCCO)c(C#N)c(-c2cccc([N+](=O)[O-])c2)n1
90.7% (inactive)

Give growth (SNB-19 CNS) of the following molecule: CC(C)(O)c1cn(CCCCN2C(=O)C(=O)c3ccccc32)nn1
95.9% (inactive)

Given the entry C=C1c2nc3ccccc3n2C=C(c2ccc(OC)cc2)N1Cc1ccccc1 , what growth was observed with SNB-19 CNS?
79.3% (inactive)

Missing value: growth, SNB-19 CNS, entry CN1CCN(CCCOc2cccc3nc(Nc4ccc(Cl)c(F)c4)ccc23)CC1 . Fill in?
42.3% (inactive)

SNB-19 CNS / growth / O=C(N=Nc1c(O)[nH]c2ccc(Br)cc12)c1cc(-c2ccccc2)on1 : value?
102% (inactive)

Query growth on SNB-19 CNS for CCC([N+](=O)[O-])S(=O)(=O)c1ccc(C)cc1 (stereo unspecified)
94.4% (inactive)

Kindly state the measured growth obtained for Cn1cc(C(=O)c2nc(-c3c[nH]c4ccc(F)cc34)no2)c2cc(F)ccc21 with SNB-19 CNS.
101% (inactive)
